Recorded values, source ChEMBL document CHEMBL1143888.

Biological target: C-C chemokine receptor type 3 (Homo sapiens, UniProt P51677)
Sequence (P51677 whole entry): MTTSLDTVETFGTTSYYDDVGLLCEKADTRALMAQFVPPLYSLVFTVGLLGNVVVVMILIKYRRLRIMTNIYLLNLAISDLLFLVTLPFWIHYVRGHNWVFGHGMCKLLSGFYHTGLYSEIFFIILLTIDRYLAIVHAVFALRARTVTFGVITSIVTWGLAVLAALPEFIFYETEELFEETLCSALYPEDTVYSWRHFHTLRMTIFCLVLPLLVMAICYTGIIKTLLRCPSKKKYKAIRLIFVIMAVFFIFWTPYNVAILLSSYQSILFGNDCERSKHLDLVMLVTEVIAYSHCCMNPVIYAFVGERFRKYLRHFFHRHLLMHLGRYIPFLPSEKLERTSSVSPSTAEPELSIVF
Test: Antagonist activity at CCR3 expressed in B300-19 cells assessed as inhibition of eotaxin-induced calcium influx
Format: functional, cell-based
test.readout: IC50 (µM)
Expressed in µM, but write only the number.

Recorded results for 5 compounds are shown here.
compound.structure: COc1ccccc1C(=O)NC1CCN(Cc2ccc3cc(F)ccc3c2)CC1
target.under.test: C-C chemokine receptor type 3 (Homo sapiens, UniProt P51677)
IC50 / µM: 0.72
--
compound.structure: O=C(NC1CCN(Cc2ccc3cc(F)ccc3c2)CC1)c1ccccc1
target.under.test: C-C chemokine receptor type 3 (Homo sapiens, UniProt P51677)
IC50 / µM: 1.3
--
compound.structure: O=C(Nc1ccccc1)OC1CCN(Cc2ccc3cc(F)ccc3c2)CC1
target.under.test: C-C chemokine receptor type 3 (Homo sapiens, UniProt P51677)
IC50 / µM: 4.8
--
compound.structure: O=C(NC1CCN(Cc2ccc3cc(F)ccc3c2)CC1)c1ccccc1F
target.under.test: C-C chemokine receptor type 3 (Homo sapiens, UniProt P51677)
IC50 / µM: 2.9
--
compound.structure: O=C(Nc1ccccc1)C1CCN(Cc2ccc3cc(F)ccc3c2)CC1
target.under.test: C-C chemokine receptor type 3 (Homo sapiens, UniProt P51677)
IC50 / µM: 1.7

Please give measured IC50 of the following entry: O=S(=O)(NC1CCN(Cc2ccc3cc(F)ccc3c2)CC1)c1ccccc1
0.83

----------
target: C-C chemokine receptor type 3 (Homo sapiens, UniProt P51677); test: Antagonist activity at CCR3 expressed in B300-19 cells assessed as inhibition of eotaxin-induced calcium influx
Threshold 1000 nM. IC50 below it: 1. IC50 at it or above: -1.

compound.structure: COc1cccc(C(=O)NC2CCN(Cc3ccc4cc(F)ccc4c3)CC2)c1
target.under.test: C-C chemokine receptor type 3 (Homo sapiens, UniProt P51677)
class.name: -1
--
compound.structure: O=C(NC1CCN(Cc2ccc3cc(F)ccc3c2)CC1)c1cccc(Oc2ccccc2)c1
target.under.test: C-C chemokine receptor type 3 (Homo sapiens, UniProt P51677)
class.name: -1
--
compound.structure: CC1(NC(=O)c2ccccc2-c2ccccc2)CCN(Cc2ccc3cc(F)ccc3c2)CC1
target.under.test: C-C chemokine receptor type 3 (Homo sapiens, UniProt P51677)
class.name: -1
--
compound.structure: Fc1ccc2cc(CN3CCC(NCc4ccccc4)CC3)ccc2c1
target.under.test: C-C chemokine receptor type 3 (Homo sapiens, UniProt P51677)
class.name: 1

Please determine if O=C(NC1CCN(Cc2ccc3cc(F)ccc3c2)CC1)c1cccc(F)c1 is below 1000 nM in terms of IC50.
1

----------
Molecular target: C-C chemokine receptor type 3 (Homo sapiens)
Sequence (P51677 whole entry): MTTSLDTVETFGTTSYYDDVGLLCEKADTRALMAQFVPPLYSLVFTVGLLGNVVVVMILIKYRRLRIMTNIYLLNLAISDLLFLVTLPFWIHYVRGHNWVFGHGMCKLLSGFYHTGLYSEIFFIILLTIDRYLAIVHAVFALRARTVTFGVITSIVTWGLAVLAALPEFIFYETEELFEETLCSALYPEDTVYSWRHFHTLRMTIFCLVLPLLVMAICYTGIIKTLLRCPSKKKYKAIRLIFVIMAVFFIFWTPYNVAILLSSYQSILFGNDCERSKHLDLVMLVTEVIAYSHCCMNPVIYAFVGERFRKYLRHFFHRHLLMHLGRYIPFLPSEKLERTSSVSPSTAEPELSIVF
Experiment: Antagonist activity at CCR3 expressed in B300-19 cells assessed as inhibition of eotaxin-induced calcium influx
The molecules listed here are annotated with their IC50.
Value expressed in nM; do not type the unit.

Recorded results for 2 molecules are shown here.
compound.structure: O=C(NC1CCN(Cc2ccc3cc(F)ccc3c2)CC1)c1ccccc1Oc1ccccc1
target.under.test: C-C chemokine receptor type 3 (Homo sapiens)
unit.of.measurement: nM
readout.value: 95

compound.structure: O=C(NC1CCN(C/C=C/c2ccc(F)cc2)CC1)c1ccccc1
target.under.test: C-C chemokine receptor type 3 (Homo sapiens)
unit.of.measurement: nM
readout.value: 3400

Provide measured IC50 on C-C chemokine receptor type 3 (Homo sapiens) for COc1ccc(C(=O)NC2CCN(Cc3ccc4cc(F)ccc4c3)CC2)cc1 please.
2400

Please tell me the measured IC50 for CN(C(=O)c1ccccc1)C1CCN(Cc2ccc3cc(F)ccc3c2)CC1 ; system: C-C chemokine receptor type 3 (Homo sapiens).
810
